System: T-47D breast
TEST_SUMMARY: NCI tumour cell line growth inhibition, 48 h
RECORDED_ENDPOINT: TGI

Record excerpt, results attached:
For the record COC(=O)CCc1c(/C=C2\N=C(c3ccc[nH]3)C=C2OC)[nH]c(C)c1C(=O)OCc1ccccc1 , what value of TGI is listed for T-47D breast?
1.45 µM

Requested read-out TGI, target or system T-47D breast, entry Cc1cc(C)nc(NS(=O)(=O)c2ccc(NC(=O)c3ccc4nc5ccccc5c(Nc5ccc(S(=O)(=O)Nc6nc(C)cc(C)n6)cc5)c4c3)cc2)n1
> 100 µM

Recorded TGI for C[C@]12CC[C@H]3[C@@H](CCC4=CC(=O)CC[C@@]43C)[C@@H]1CC[C@@H]2OC(=O)c1cccc2c(=O)c3ccccc3[nH]c12 with T-47D breast, please?
> 100 µM

What value of TGI on T-47D breast does COC(=O)c1ccccc1Nc1ccccc1C(=O)OC have?
> 100 µM

Requested read-out TGI, target or system T-47D breast, entry O=C(O)CCCN=C(C(=NCCCC(=O)O)c1ccccc1)c1ccccc1
> 100 µM

---
Return TGI measured with T-47D breast given this compound: COc1ccc(NC(C)=O)cc1N1C(=O)/C(=C\c2cccc(Oc3ccccc3)c2)SC1c1ccccc1 (stereo not given)
> 100 µM

Please provide the recorded TGI for CC(C)(C)OC(=O)CC(NC(=O)OC(C)(C)C)C(=O)Oc1ccc([N+](=O)[O-])cc1 (stereo not given) , tested on T-47D breast.
> 100 µM

Identify the measured TGI of Cc1c(C=C(C#N)C#N)c(=O)n(C)c(=O)n1C for T-47D breast.
> 100 µM
